FYI, the data here is from PubChem BioAssay (NCATS).

TEST TARGET: Peptidyl-prolyl cis-trans isomerase NIMA-interacting 1 (Homo sapiens)
ASSAY EXPLANATION: qHTS Validation Assay to Find Inhibitors of Pin1 (AID 504536);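 also: 0% = full Pin1 enzyme wells and -100% = no-enzyme wells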
CONDITION INFO: Pin1 fluorescence polarization peptide binding assay; series mostly up to 57.5 µM
Results filed as inconclusive are left out. Active and inactive are the calls of the source. Calls follow the shape of the dose curve; as a rule, active = well fitted inhibition curve with a large enough effect in the polarisation, with a control signal flat (not every such curve was filed as active); inconclusive = small, poorly fitted or top-dose-only effect, or effect the other way; inactive = flat fitted curve, though single readings scatter; the % refers to the polarisation.
MEASURE: outcome

Take a look at these entries with their results.
• NCCc1ccc(O)c(O)c1 = inactive
• Cc1ccccc1C(OCCN(C)C)c1ccccc1 (centres undefined) = inactive
• CN1CCN(CCCN2c3ccccc3Sc3ccc(C(F)(F)F)cc32)CC1 = inactive
• Cc1cnc(NC(=O)C2=C(O)c3ccccc3S(=O)(=O)N2C)s1 = inactive
• NNCCc1ccccc1 = inactive

Shift focus to the following entry.
So, N[C@@H]1CONC1=O ? Its outcome was inactive

----------
ASSAY EXPLANATION: qHTS of pediatric cancer cell lines to identify multiple opportunities for drug repurposing: Confirmatory screen for SK-N-MC cells (AID 1347111);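 also: cells exposed to compound for 48 h before the readout; nearly all actives have a fitted effect of over 70% in size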
CONDITION INFO: SK-N-MC cell viability; series mostly up to 45.9 µM
Records with an inconclusive call do not appear. Active and inactive are the calls of the source. Calls follow the shape of the dose curve; as a rule, active = well fitted cell-killing curve with a large enough effect; inconclusive = small, poorly fitted or top-dose-only effect; inactive = no such curve, though single readings can be large or run the other way.
Can you answer with just one of these options? active, inactive

The following molecules have reported results that may help.
* Nc1nc2c(ncn2COCCO)c(=O)[nH]1 | inactive
* COc1cc2nccc(Oc3ccc(NC(=O)NC4CC4)c(Cl)c3)c2cc1C(N)=O | active
* CCCS(=O)(=O)Nc1ccc(F)c(C(=O)c2c[nH]c3ncc(-c4ccc(Cl)cc4)cc23)c1F | active

Assay outcome for Nc1nc2[nH]cc(CCc3ccc(C(=O)N[C@@H](CCC(=O)O)C(=O)O)cc3)c2c(=O)[nH]1 : what was it?
active

----------
ASSAY EXPLANATION: Identifying Small Molecule Inhibitors of Pancreatic Cancer Stem Cells (A278, Adherent) (AID 1259361);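 also: viability read after 48 h compound exposure; nearly all actives have a fitted effect of over 35% in size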
CONDITION INFO: series mostly up to 46.1 µM
Records with an inconclusive call do not appear. Calls of active or inactive are those of the source. Calls come from the whole dose curve; as a rule, active = well fitted cell-killing curve with a large enough effect; inconclusive = small, poorly fitted or top-dose-only effect; inactive = flat fitted curve, though single readings scatter.
MEASURE: IC50 (viability decrease)

// known answers, use as guide
* COc1ccc(CC2=NN3C([C@@H](CCc4ccccc4)[C@@H](C)O)=NC(C)C3C(=O)N2)cc1OC (some centres not stated) | 23.5 µM (active)
* COCCNCCCn1c(C(=O)CF)c(-c2ccc(C)cc2)c2c(N)ncnc21 | 18.7 µM (active)
* CC(C)C[C@H](NC(=O)[C@@H](O)[C@H](N)Cc1ccccc1)C(=O)O | inactive
* CNC(=O)c1ccc(N2C(=S)N(c3ccc(C#N)c(C(F)(F)F)c3)C(=O)C2(C)C)cc1F | 23.5 µM (active)
* Fc1ccc(Cl)cc1-c1nc(Nc2ccncc2)c2nccnc2n1 | inactive
* N#Cc1ccc(C(c2ccc(C#N)cc2)n2cncn2)cc1 | inactive
* C[C@]1(c2nc3c(C(N)=O)cccc3[nH]2)CCCN1 | 18.7 µM (active)
* Cc1ccc(-n2nc(C(C)(C)C)cc2NC(=O)Nc2ccc(OCCN3CCOCC3)c3ccccc23)cc1 | 18.7 µM (active)

Entry Cc1c(CCOc2ccc(C(=O)O)cc2)c2cc(Cl)ccc2n1C(c1ccccc1)c1ccccc1 ; IC50 (viability decrease) = inactive

Briefly, IC50 (viability decrease) measured for Cc1cc(Nc2nc(N[C@@H](C)c3ncc(F)cn3)ncc2Cl)n[nH]1 : inactive

The measured IC50 (viability decrease) associated with Oc1cccc(-c2nc(N3CCOCC3)c3oc4ncccc4c3n2)c1 reads 0.105 µM (active)

Record COc1ccccc1[C@H](c1cccc2ccccc12)[C@@](C)(C#N)C(=O)N1CCC(c2cccc(C(F)(F)F)c2)CC1 . Reported IC50 (viability decrease): 6.62 µM (active)

Lab note: CC1(C)SCCN(S(=O)(=O)c2ccc(OCC#CCO)cc2)[C@@H]1C(=O)NO gave IC50 (viability decrease) of inactive

----------
ASSAY EXPLANATION: Identifying Small Molecule Inhibitors of Pancreatic Cancer Stem Cells (SN12C, Spheroid) (AID 1259360)
CONDITION INFO: SN12C spheroid viability; series mostly up to 46.1 µM
Results filed as inconclusive are left out. Activity calls are given as the source filed them. The call rests on the fitted dose curve; in most records, active means well fitted cell-killing curve with a large enough effect; inconclusive means small, poorly fitted or top-dose-only effect, or effect the other way; inactive means flat fitted curve, though single readings scatter.
Outcome (select one): class 1 (active), class 0 (inactive)

* CCOc1cc(C=C2C(=O)N(c3ccccc3)N=C2C)cc(Cl)c1OCC(=O)OC | class 0
* COc1ccc(-c2ccc3c(N4CCOCC4)nc(N4C[C@@H](C)O[C@@H](C)C4)nc3n2)cc1CO | class 1
* CCc1cncnc1N1CCN(Cc2nc3ccc(C(F)(F)F)cc3[nH]2)CC1 | class 1
* CC(C)(Sc1ccc(CCN(CCCCC2CCCCC2)C(=O)NC2CCCCC2)cc1)C(=O)O | class 0

Status in this test for C[C@@H]1C[C@H]2[C@@H]3CCC4=CC(=O)C=C[C@]4(C)C3(F)[C@@H](O)C[C@]2(C)[C@@]1(O)C(=O)CO (some centres undefined) ?
class 0

For this compound, state the assay outcome: COc1cc(F)c(F)c(Nc2ccc(I)cc2F)c1NS(=O)(=O)C1(C[C@H](O)CO)CC1
class 0

Hello, I am checking results. What call was entered for O=C(NOC[C@H](O)CO)c1ccc(F)c(F)c1Nc1ccc(I)cc1F ?
class 1

Please let me know the test result on file for O=C(O)[C@@H](c1ccc(OCc2ccc3ccccc3n2)cc1)C1CCCC1 .
class 0

# fetch the recorded call for COc1ccccc1[C@H](c1cccc2ccccc12)[C@@](C)(C#N)C(=O)N1CCC(c2cccc(C(F)(F)F)c2)CC1 here
class 0

Could you check what this test reported for Cc1[nH]c(=O)c(C#N)cc1-c1ccc2nccn2c1 ?
class 0

Just curious, what result did Cc1c(CCOc2ccc(C(=O)O)cc2)c2cc(Cl)ccc2n1C(c1ccccc1)c1ccccc1 get here?
class 0

----------
ASSAY EXPLANATION: qHTS for differential inhibitors of proliferation of Plasmodium falciparum line 3D7 (AID 1876)
CONDITION INFO: P. falciparum 3D7 proliferation inhibition; series mostly up to 28.7 µM
Results filed as inconclusive are left out. Active and inactive are the calls of the source. Calls come from the whole dose curve; as a rule, active = well fitted curve in the direction sought with a large enough effect; inconclusive = small, poorly fitted or top-dose-only effect, or another doubt; inactive = no such curve, though single readings can be large or run the other way.
Hello, when you answer, please use one of the following outcomes: t = active, f = inactive

Completed entries (count: 8):
• CC(C)NCC(O)COc1ccc(COCCOC(C)C)cc1 (stereo not given) = f
• O=c1n(CCCN2CCN(c3cccc(Cl)c3)CC2)nc2ccccn12 = f
• CCn1cc(C(=O)O)c(=O)c2cc(F)c(N3CCNC(C)C3)c(F)c21 (stereo not given) = t
• Nc1nc2c(ncn2COCCO)c(=O)[nH]1 = f
• Cc1[nH]c(=O)c(C#N)cc1-c1ccncc1 = f
• O=C1CCC(N2C(=O)c3ccccc3C2=O)C(=O)N1 (stereo not given) = f
• NC[C@H](O)c1ccc(O)c(O)c1 = f
• CC(C[N+](C)(C)C)OC(N)=O (stereo not given) = f

Below: the item to evaluate.
Look up the recorded call for c1ccc([C@H]2CN3CCSC3=N2)cc1 in this test.
f

----------
// values below are reported viability (% of control)
ASSAY EXPLANATION: Cell Proliferation Assay against the TMD8 Cell Line (AID 651645);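 also: cells exposed to compound for 48 h before reading; 100% = DMSO and 0% = 9.2 µM bortezomib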
CONDITION INFO: TMD8 DLBCL cell line proliferation/viability; at 46.1 µM (top of the series) unless noted
Reply with a number, then the unit it belongs to.

- O=c1[nH]c(-c2ccc(C(F)(F)F)cc2)nc2c1CSCC2: 82.1%
- COc1ccccc1[C@H](c1cccc2ccccc12)[C@@](C)(C#N)C(=O)N1CCC(c2cccc(C(F)(F)F)c2)CC1: 83.6%
- OCCn1cc(-c2cnc3nnn(Cc4ccc5ncccc5c4)c3n2)cn1: 75.8%
- Cc1cc(SCc2sc(-c3ccc(C(F)(F)F)cc3)nc2C)ccc1OCC(=O)O: 88.2%

# ---- query compound ----
Sure, the documented viability (% of control) for CNC(=O)c1ccc(N2C(=S)N(c3ccc(C#N)c(C(F)(F)F)c3)C(=O)C2(C)C)cc1F is 78.7%

----------
ASSAY EXPLANATION: Quantitative High-Throughput drug screen in 47 multiple myeloma cell lines against the NCATS MIPE library collection: L363_DSMZ cell viability assay (AID 1918984); also: nearly all actives have a fitted effect of over 40% in size
CONDITION INFO: L363 myeloma viability, CellTiter-Glo ATP luminescence, 48 h; series mostly up to 45.8 µM
Inconclusive results are not listed. The source made the active and inactive calls. Calls follow the shape of the dose curve; as a rule, active = well fitted cell-killing curve with a large enough effect; inconclusive = small, poorly fitted or top-dose-only effect, or effect the other way; inactive = no such curve, though single readings can be large or run the other way.
Pick from label 1 for active, label 0 for inactive when you respond.

Example results:
- O=NN(CCCl)C(=O)NCCCl: label 0
- O=C1[C@H](Cc2ccc(O)cc2)N2C(=O)CCN(C(=O)NCc3ccccc3)[C@H]2CN1Cc1cccc2ccccc12: label 0
- C[C@]12CC[C@H](O)CC1=CC[C@@H]1[C@H]2CC[C@]2(C)C(c3cccnc3)=CC[C@H]12: label 0
- S=C(NCc1ccc2c(c1)OCO2)N1CCN(c2ncnc3c2oc2ccccc23)CC1: label 1

I would be grateful if you could indicate the recorded call for COCC(=O)NCC=Cc1ccc2ncnc(Nc3ccc(Oc4ccc(C)nc4)c(C)c3)c2c1 .
label 1
